test system: MM1.s (human myeloma cell line); assay: Cell proliferation assay (CellTiter-Glo), MM1.s; type: cell-based; details: MM1.s cells, read-out: EC50 (μM) MM1.s
# key: entry, value: EC50

Worked examples follow.
[Q] GET /values?readout=EC50&item= N[C@H]1CCCN(c2ccncc2NC(=O)c2ccc(F)c(-c3c(F)cccc3F)n2)C1 [Example 445]
[A] 1 to 5 µM

[Q] What do you have for CC(C)Oc1ccc(F)c(-c2nc(C(=O)Nc3cnccc3N3CCC[C@H](N)C3)c(N)cc2F)c1F [Example 496] ?
[A] < 1 µM

***
[Q] What measured EC50 goes with CN(C)C(=O)c1ccc(F)c(-c2ccc(N)c(C(=O)Nc3cnccc3N3CCC[C@H](N)C3)n2)c1 [Example 328] ?
[A] < 1 µM

[Q] Now this one: COCCOc1nc(-c2ccc(N)c(C(=O)Nc3cnccc3N3CCC[C@H](N)C3)n2)cnc1N [Example 520]
[A] 5 to 10 µM

[Q] Similarly, CC(C)NC(=O)c1ccc(F)c(-c2nc(C(=O)Nc3cnccc3N3CCC[C@H](N)C3)ccc2F)c1 [Example 443] ?
[A] 5 to 10 µM

[Q] Same for CO[C@@H]1C[C@H](N)CN(c2ccncc2NC(=O)c2nc(-c3cc(C(=O)NC(C)C)ccc3F)ccc2N)C1 [Example 298]
[A] < 1 µM

[Q] Likewise for CC(C)NC(=O)c1ccc(F)c(-c2ccc(N)c(C(=O)Nc3cnccc3N3C[C@@H](N)C[C@@H](F)C3)n2)c1 [Example 292] ?
[A] < 1 µM
